System: DU-145 prostate
Assay: NCI-60 one-dose screen, 48 h
Details: 10 µM unless noted
The panel holds about 83,000 compounds, 20% with a hit somewhere; the sample as a whole holds those more often. Activity calls are given as the source filed them. Rule for the calls: active = growth percent below 10; inactive = the rest.
Classes used: T (active), F (inactive)

>  <compound>
COc1cc2c(c(OC)c1OC)-c1ccc(NNC(=S)N(Cc3cccc(C[N+](Cc4cccc(CNC56CC7CC(CC(C7)C5)C6)c4)(Cc4cccc(CNC56CC7CC(CC(C7)C5)C6)c4)Cc4cccc(CN(C(=S)NNc5ccc6c(cc5=O)[C@@H](NC(C)=O)CCc5cc(OC)c(OC)c(OC)c5-6)C56CC7CC(CC(C7)C5)C6)c4)c3)C34CC5CC(CC(C5)C3)C4)c(=O)cc1[C@@H](NC(C)=O)CC2 (stereo partly specified)

>  <labelClass>
F

$$$$
>  <compound>
CCOC(=O)c1cc(C(=O)c2ccc(OC)c(OC)c2)n2ccc(/C=C/c3cc[n+](CC(=O)c4ccc(OC)c(OC)c4)cc3)cc12

>  <labelClass>
F

$$$$
>  <compound>
COc1ccc(C/C(=C(\C)c2ccc(OCCN3CCCC3)cc2)c2ccc(OCCN3CCCC3)cc2)cc1

>  <labelClass>
F

$$$$
>  <compound>
COc1ccc(NC(=O)c2cc(NCc3cc(O)ccc3O)ccc2O)cc1

>  <labelClass>
F

$$$$
>  <compound>
C[C@H](c1nc2ccc(N)cc2[nH]1)[C@H]1CC[C@H]2[C@@H]3CCC4=CC(=O)CC[C@]4(C)[C@H]3CC[C@]12C

>  <labelClass>
F

$$$$
>  <compound>
CN1CCC(=C(c2ccccc2)c2ccccc2)C(c2ccccc2)C1 (stereo unspecified)

>  <labelClass>
F

$$$$
>  <compound>
CCCCCCOc1ccc(/C=N/Nc2cc(C)nc3ccc(Cl)cc23)cc1

>  <labelClass>
T

$$$$
>  <compound>
Cc1cccc(C)c1N=c1oc2ccc(Cl)cc2nc1-c1ccccc1O

>  <labelClass>
F

$$$$
>  <compound>
COc1cc(/C=N/NC(=O)c2cnn3c2NC(c2ccccc2)C3)ccc1Oc1ccccc1 (stereo unspecified)

>  <labelClass>
F

$$$$
>  <compound>
COc1cc2nc(-c3ccc(Cl)cc3)cc(OCCCN3CCCCC3)c2cc1OC

>  <labelClass>
F

$$$$
>  <compound>
CCCCCCNC(=O)Nc1ccc2cc3ccc(NC(=O)NCCCCCC)cc3nc2c1

>  <labelClass>
F

$$$$
>  <compound>
O=[N+]([O-])c1ccc(NC(=S)N/N=C/c2cc3ccccc3n3nnnc23)cc1

>  <labelClass>
F

$$$$
>  <compound>
COc1ccc(N2CCN(c3ccc(NC4=C(Cl)C(=O)c5ncccc5C4=O)cc3)CC2)cc1

>  <labelClass>
F

$$$$
>  <compound>
Cn1nc(CC#N)c2c(=N)n(N)cnc21

>  <labelClass>
F

$$$$
>  <compound>
O=C1Nc2cc(-c3ccc(NC(=O)C4CC4)cc3)ccc2/C1=C/c1ccc[nH]1

>  <labelClass>
F

$$$$
>  <compound>
N#Cc1c(NC(=O)NCc2ccccc2)sc2c1CCCCC2

>  <labelClass>
T

$$$$
>  <compound>
CCCCCCCC(=O)OCC/C=C/C1OC1C1OC(=O)/C=C\C=C\C(=O)N(C(C)=O)C(=O)/C=C(/C)CCC2OC2C1OC(=O)NC(C)=O (stereo unspecified)

>  <labelClass>
F

$$$$
>  <compound>
CCCCCCCCCCCCCCCC[N+]1(C)CCN(SN2CC[N+](C)(CCCCCCCCCCCCCCCC)CC2)CC1

>  <labelClass>
F

$$$$
>  <compound>
CN1C(N2CCN(S(=O)(=O)c3ccccc3)CC2)=NS(=O)(=O)c2ccccc21

>  <labelClass>
F

$$$$
>  <compound>
COc1cc(/C=C\c2cc(OC)c(OC)c(OC)c2)cc(N)c1OC

>  <labelClass>
F

$$$$
>  <compound>
O=C(Nc1ccccc1)Nc1ccc2cc3ccc(NC(=O)Nc4ccccc4)cc3nc2c1

>  <labelClass>
F

$$$$
